STUDY SYSTEM: Alpha-1D adrenergic receptor (Rattus norvegicus) (UniProt P23944)
Sequence (P23944 whole entry): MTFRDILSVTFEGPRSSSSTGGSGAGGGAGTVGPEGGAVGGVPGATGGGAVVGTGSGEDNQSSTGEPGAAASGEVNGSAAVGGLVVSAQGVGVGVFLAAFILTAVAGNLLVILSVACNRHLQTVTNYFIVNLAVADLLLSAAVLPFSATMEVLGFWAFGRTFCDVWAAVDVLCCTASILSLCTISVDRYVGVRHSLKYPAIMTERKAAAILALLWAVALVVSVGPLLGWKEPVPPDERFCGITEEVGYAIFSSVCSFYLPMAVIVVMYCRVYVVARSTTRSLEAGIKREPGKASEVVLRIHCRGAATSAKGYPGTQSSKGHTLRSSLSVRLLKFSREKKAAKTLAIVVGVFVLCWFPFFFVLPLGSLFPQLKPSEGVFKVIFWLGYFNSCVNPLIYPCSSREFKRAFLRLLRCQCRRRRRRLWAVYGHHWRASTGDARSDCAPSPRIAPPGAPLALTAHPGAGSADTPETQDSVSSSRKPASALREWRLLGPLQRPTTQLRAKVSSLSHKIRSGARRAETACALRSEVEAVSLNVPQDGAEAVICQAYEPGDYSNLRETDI
EXPERIMENT NOTES: Antagonist activity at alpha1D-adrenoreceptor in Wistar rat bladder strips assessed as relaxation of PHE-induced contractile response after 30 mins
Type: functional
If the reported IC30 equals or exceeds 80 nM, assign label 1. If not, assign label 0.

stdin: Determine whether this compound has IC30 no lower than 80 nM: CS(=O)(=O)c1ccccc1CNCCOc1cc(F)ccc1Cl
stdout: label 1

---

Alpha-1B adrenergic receptor (Homo sapiens) Ki data
Sequence (P35368 whole entry): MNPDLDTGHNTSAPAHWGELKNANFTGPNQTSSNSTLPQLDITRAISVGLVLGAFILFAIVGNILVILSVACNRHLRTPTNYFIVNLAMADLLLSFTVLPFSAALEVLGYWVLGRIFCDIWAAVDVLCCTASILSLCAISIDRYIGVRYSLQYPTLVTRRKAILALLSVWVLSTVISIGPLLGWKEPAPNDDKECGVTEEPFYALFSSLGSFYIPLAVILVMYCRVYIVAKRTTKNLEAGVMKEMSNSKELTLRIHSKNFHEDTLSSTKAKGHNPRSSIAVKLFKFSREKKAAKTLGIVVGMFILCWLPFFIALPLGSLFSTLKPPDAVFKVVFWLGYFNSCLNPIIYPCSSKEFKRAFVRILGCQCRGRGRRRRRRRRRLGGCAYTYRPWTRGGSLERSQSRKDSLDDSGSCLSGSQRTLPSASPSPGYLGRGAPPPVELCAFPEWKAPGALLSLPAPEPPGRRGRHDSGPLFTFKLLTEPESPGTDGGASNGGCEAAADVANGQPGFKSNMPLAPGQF
Could you give me the number in nM? Just the number is fine.

Example molecules with recorded Ki:
INSERT INTO measurements (molecule, quantitative_result) VALUES
  ('CNc1ccc2c(c1)[C@@H](NCCOc1cc(F)ccc1F)CCS2(=O)=O', 150),
  ('CS(=O)(=O)c1ccc(Cl)cc1CNCCOc1cc(F)ccc1Cl', 1100),
  ('CS(=O)(=O)c1ccccc1CCNCCOc1cc(F)ccc1Cl', 30);

Next molecule, Ki to be filled in.
stdin: Can you share its Ki? I mean this molecule: CS(=O)(=O)c1ccccc1CCCNCCOc1cc(F)ccc1Cl
stdout: 44
